- Tested on: NCI-H522
- PROTOCOL_SUMMARY: NCI tumour cell line growth inhibition, 48 h
Calls of active or inactive are those of the source. Cut-off read from the data, not from the text of the source: active = GI50 up to about 1.1 µM and inactive = higher.
REPORTED_ENDPOINT: GI50

// below: answered compounds
COC(=O)C(Cc1ccccc1)NC(=O)c1ccc(CNC(=S)NCc2cccc(CNC(=S)NCc3ccccc3)c2)cc1 (stereo not given) :: > 32.5 µM (inactive)
N#Cc1nc(Nc2ccc(Cl)cc2)sc1N :: 3.01 µM (inactive)
CC(=O)OCc1cc2ccccc2nc1C(Br)(Br)Br :: 16 µM (inactive)
O=C1CS(=O)(=O)C(c2cccc(Oc3ccccc3)c2)N1c1cccc(Cl)c1Cl (stereo not given) :: 18 µM (inactive)
CSC1C=C(C(C)C)CCC1(C)SC (stereo not given) :: 16.3 µM (inactive)

Let us move to another entry and its GI50.
Lookup: Using the record for CC(=O)OCC1OC(n2c(-c3ccc(Cl)cc3)cc(-c3ccccc3)c(C#N)c2=S)C(OC(C)=O)C(OC(C)=O)C1OC(C)=O (stereo not given) , report its GI50.
Found: 18.1 µM (inactive)
